B1: TMEM192 (parent)
chain: LWILHLLLECYIQYHHSKIRNRGY

- Variants of: B1
- experimentDescription: protein stability index of a GFP-peptide fusion (GPS, HEK-293T) (PSI 1-6); higher = more stable;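 note: lentivirally expressed fusions sorted by FACS into six bins by GFP to DsRed ratio, PSI derived from sequencing read proportions per bin multiplied by bin number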
- runParameters: c terminus: a fixed tail appended
measuredQuantity: protein stability index

Recorded protein stability index for "K18M" , please?
3.16

Let us now turn to "Y11I"
2.47

Let us now turn to "R22P"
1.67

Let us now turn to "W2Q"
2.66

Let us now turn to "R22K"
1.46

Let us now turn to "I3H"
2.09

Let us now turn to "Y24Q"
1.57

Let us now turn to "N21S"
2.7

Let us now turn to "C10G"
1.18
